All values here come from patent US6841682B2.

target: α1a-AR (Homo sapiens); construct: expressed in transfected cells; host or cells: COS cells (pcDNA3 vector, DEAE-dextran transient transfection); membrane preparation; assay: radioligand ([125I]-HEAT) receptor binding assay, COS cell membranes, α1a-AR; conditions: stated in the preparative example; read-out: activity in the α1a screen
Sequence (P35348 whole entry): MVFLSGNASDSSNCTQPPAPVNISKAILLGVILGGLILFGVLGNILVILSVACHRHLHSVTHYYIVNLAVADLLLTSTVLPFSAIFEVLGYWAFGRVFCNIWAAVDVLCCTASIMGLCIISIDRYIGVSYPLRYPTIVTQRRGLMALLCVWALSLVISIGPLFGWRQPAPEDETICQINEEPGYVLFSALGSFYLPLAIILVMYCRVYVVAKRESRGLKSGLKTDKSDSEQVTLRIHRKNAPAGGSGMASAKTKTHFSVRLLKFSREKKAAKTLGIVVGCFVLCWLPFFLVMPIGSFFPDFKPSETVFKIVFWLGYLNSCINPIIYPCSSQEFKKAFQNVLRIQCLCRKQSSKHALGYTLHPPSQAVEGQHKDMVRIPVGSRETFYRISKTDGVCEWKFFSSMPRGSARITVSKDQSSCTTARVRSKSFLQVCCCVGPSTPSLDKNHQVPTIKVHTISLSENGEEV
RECORDED_ENDPOINT: IC50 (nM)

a: CC(C)Oc1ccccc1N1CCN(C/C=C/C(=O)CN2CCCCC2=O)CC1
b: CC(C)Oc1ccccc1N1CCN(CC(=O)CC(=O)CN2CCCCC2=O)CC1
c: CC(C)Oc1ccccc1N1CCN(CC(O)CC(=O)CN2CCCCC2=O)CC1 (stereo not shown)
d: CC(C)Oc1ccccc1N1CCN(CC(O)CC(O)CN2CCCCC2=O)CC1 (stereo not shown)
Sort (4 compounds) by IC50: min first. I would appreciate it if you listed the labels in the requested order. a, c, d, b
(a: 18 nM, c: 28 nM, d: 53 nM, b: 417 nM)

----------
Target: α1d-AR (Homo sapiens, UniProt P25100)
Sequence (P25100 1-572): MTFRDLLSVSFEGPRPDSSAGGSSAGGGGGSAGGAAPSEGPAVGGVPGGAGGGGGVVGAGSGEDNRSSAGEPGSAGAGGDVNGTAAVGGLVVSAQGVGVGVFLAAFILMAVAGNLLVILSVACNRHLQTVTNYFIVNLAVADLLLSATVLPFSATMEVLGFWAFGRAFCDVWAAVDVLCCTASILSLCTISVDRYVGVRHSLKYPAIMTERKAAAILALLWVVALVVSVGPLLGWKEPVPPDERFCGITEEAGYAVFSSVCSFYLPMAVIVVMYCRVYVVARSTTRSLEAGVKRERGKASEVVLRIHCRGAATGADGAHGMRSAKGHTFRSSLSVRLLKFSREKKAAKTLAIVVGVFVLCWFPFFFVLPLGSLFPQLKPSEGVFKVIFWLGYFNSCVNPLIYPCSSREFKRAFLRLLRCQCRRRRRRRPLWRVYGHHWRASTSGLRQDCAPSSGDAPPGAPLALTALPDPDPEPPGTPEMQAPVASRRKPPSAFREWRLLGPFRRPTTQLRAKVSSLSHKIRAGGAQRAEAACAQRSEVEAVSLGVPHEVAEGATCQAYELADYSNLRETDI
RECORDED_ENDPOINT: IC50 (nM)

COMPOUND	RECORDED_ENDPOINT	U	OBSERVED_MEASUREMENT
COc1ccccc1N1CCN(Cc2cccc(CN3CCCCC3=O)n2)CC1 [compound 54]	IC50	nM	500
COc1ccccc1N1CCN(Cc2cccc(CN3CCCC3=O)n2)CC1 [compound 43]	IC50	nM	1560

a: CC(C)Oc1ccccc1N1CCN(Cc2cc(CN3CCCC3=O)no2)CC1 [Compound 28]
b: COc1ccccc1N1CCN(Cc2cccc(CN3CCCCCC3=O)n2)CC1 [compound 42]
c: COc1ccccc1N1CCN(Cc2ccc(CN3CCCC3=O)s2)CC1 [Compound 23]
Order by IC50, ascending. Provide the ranking by listing each label in its place in the requested order. c, a, b

----------
biological target: α1c (Homo sapiens, UniProt P25100)
RECORDED_ENDPOINT: IC50 (nM)
# output: bare number, implied unit nM

The reported α1c (Homo sapiens, UniProt P25100) IC50 of CC(C)Oc1ccccc1N1CCN(C/C=C/C(=O)CN2CCCCC2=O)CC1 is 602
